system_under_test: ABL1 (64-515) (Homo sapiens (Human), UniProt P00519)
Sequence (P00519 64-515): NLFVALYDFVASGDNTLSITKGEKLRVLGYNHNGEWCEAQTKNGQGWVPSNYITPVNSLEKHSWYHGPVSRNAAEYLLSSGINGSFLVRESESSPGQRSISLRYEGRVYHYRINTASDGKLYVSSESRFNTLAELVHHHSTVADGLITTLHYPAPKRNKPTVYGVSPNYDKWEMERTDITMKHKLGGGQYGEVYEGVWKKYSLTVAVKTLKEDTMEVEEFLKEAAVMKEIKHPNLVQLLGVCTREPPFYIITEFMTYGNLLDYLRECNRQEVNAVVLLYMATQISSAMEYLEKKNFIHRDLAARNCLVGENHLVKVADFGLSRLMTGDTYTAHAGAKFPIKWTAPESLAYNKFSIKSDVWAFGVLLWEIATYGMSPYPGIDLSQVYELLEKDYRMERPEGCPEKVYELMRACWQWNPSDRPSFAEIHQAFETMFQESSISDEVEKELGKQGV
procedure_summary: Caliper ABL1 (64-515) microfluidic mobility shift kinase assay
condition_description: read-out: Caliper ABL1 (64-515) IC50
pIC50: −log10 of the molar value.

{"columns": ["smiles_text", "system_under_test", "value_relation_sign", "pIC50"],
 "data": [
  ["O=C(Nc1ccc(OC(F)(F)Cl)cc1)c1cnc(N2CCN(CC(F)(F)F)CC2)c(-c2ccn[nH]2)c1", "ABL1 (64-515) (Homo sapiens (Human), UniProt P00519)", ">", 9.19],
  ["CC1(O)CN(c2ncc(C(=O)Nc3ccc(OC(F)(F)F)cc3)cc2-c2ccn[nH]2)C1", "ABL1 (64-515) (Homo sapiens (Human), UniProt P00519)", "=", 8.28],
  ["NC1CN(c2ncc(C(=O)Nc3ccc(OC(F)(F)Cl)cc3)cc2-c2ccn[nH]2)C1", "ABL1 (64-515) (Homo sapiens (Human), UniProt P00519)", "=", 9.70],
  ["O=C(Nc1ccc(OC(F)(F)F)cc1)c1cnc(N2CC(CO)C2)c(-c2ccn[nH]2)c1", "ABL1 (64-515) (Homo sapiens (Human), UniProt P00519)", "=", 8.35]
]}

----------
system_under_test: ABL1 (64-515) (Homo sapiens (Human))
procedure_summary: Radio ABL1 (64-515) radiometric filter-binding kinase assay
Assay type: biochemical
condition_description: 20 μM ATP
I'd appreciate it if you marked entries true when IC50 is lower than 2 nM and false when it is not.

{"columns": ["compound", "qualitative_label"],
 "data": [
  ["O=C(Nc1ccc(OC(F)(F)F)cc1)c1cnc(N2C[C@H](CO)[C@@H](O)C2)c(-c2cncs2)c1 (relative stereo) [Example 17]", "false"],
  ["Cn1c(C#N)ccc1-c1cc(C(=O)Nc2ccc(OC(F)(F)Cl)cc2)cnc1N1CC[C@@H](O)C1 [Example 47]", "true"],
  ["N#Cc1ccc(-c2cc(C(=O)Nc3ccc(OC(F)(F)F)cc3)ccc2N2C[C@H](O)[C@@H](O)C2)[nH]1 [Example 29]", "true"],
  ["O=C(Nc1ccc(OC(F)(F)Cl)cc1)c1cnc(N2CCNC3(CC3)C2)c(-c2ccn[nH]2)c1 [Example 56]", "true"],
  ["O=C(Nc1ccc(OC(F)(F)Cl)cc1)c1cnc(N2CCN(CC(F)F)CC2)c(-c2ccn[nH]2)c1 [Example 59]", "false"],
  ["N#Cc1ccc(-c2cc(C(=O)Nc3ccc(OC(F)(F)Cl)cc3)cnc2N2CC[C@@H](O)C2)[nH]1 [Example 45]", "false"],
  ["N[C@@H]1CN(c2ncc(C(=O)Nc3ccc(OC(F)(F)Cl)cc3)cc2-c2ccn[nH]2)C[C@H]1F (relative stereo) [Example 52]", "false"],
  ["NC[C@H]1CN(c2ncc(C(=O)Nc3ccc(OC(F)(F)Cl)cc3)cc2-c2ccn[nH]2)C[C@H]1O (relative stereo) [Example 80]", "true"],
  ["NCC1(F)CCN(c2ncc(C(=O)Nc3ccc(OC(F)(F)Cl)cc3)cc2-c2ccn[nH]2)C1 (stereo not drawn) [Example 51]", "false"],
  ["O=C(Nc1ccc(OC(F)(F)F)cc1)c1cnc(N2CC[C@@H](O)C2)c(-c2ccc[nH]2)c1 [Example 6]", "false"],
  ["O=C(Nc1ccc(OC(F)(F)Cl)cc1)c1cnc(N2CC[C@@H](O)C2)c(-c2ccc[nH]2)c1 [Example 22]", "false"],
  ["N#Cc1cc(-c2cc(C(=O)Nc3ccc(OC(F)(F)F)cc3)cnc2N2CCCC2)[nH]n1 [Example 44]", "false"],
  ["O=C(Nc1ccc(OC(F)(F)F)cc1)c1cnc(N2CCOC(CO)C2)c(-c2ccn[nH]2)c1 (stereo not drawn) [Example 36]", "false"],
  ["NC12CC1CN(c1ncc(C(=O)Nc3ccc(OC(F)(F)Cl)cc3)cc1-c1ccn[nH]1)C2 (stereo not drawn) [Example 54]", "true"]
]}

----------
system_under_test: ABL1 (64-515) (Homo sapiens (Human))
procedure_summary: Caliper ABL1 (64-515) microfluidic mobility shift kinase assay
condition_description: read-out: Caliper ABL1 (64-515) IC50
pIC50: −log10 of the molar value.
# pIC50 >= 9 gives yes, anything below gives no

{"columns": ["molecule", "qualitative_label"],
 "data": [
  ["N[C@@H]1CN(c2ncc(C(=O)Nc3ccc(OC(F)(F)Cl)cc3)cc2-c2ccn[nH]2)C[C@H]1F (relative stereo) [Example 52]", "no"],
  ["N#Cc1ccc(-c2cc(C(=O)Nc3ccc(OC(F)(F)Cl)cc3)cnc2N2C[C@H](O)[C@@H](O)C2)[nH]1 [Example 46]", "yes"],
  ["O=C(Nc1ccc(OC(F)(F)F)cc1)c1cnc(N2CCCC2)c(-c2cc(CO)n[nH]2)c1 [Example 43]", "no"],
  ["O=C(O)CCNc1ncc(C(=O)Nc2ccc(OC(F)(F)Cl)cc2)cc1-c1ccn[nH]1 [Example 94]", "no"],
  ["O=C(Nc1ccc(OC(F)(F)Cl)cc1)c1cnc(NCC[C@@H](O)CO)c(-c2ccn[nH]2)c1 [Example 102]", "no"],
  ["O=C(Nc1ccc(OC(F)(F)Cl)cc1)c1cnc(N2CC[C@@H](O)C2)c(-c2ncc[nH]2)c1 [Example 71]", "yes"],
  ["O=C(Nc1ccc(OC(F)(F)Cl)cc1)c1cnc(N2CCN(CCF)CC2)c(-c2ccn[nH]2)c1 [Example 58]", "no"],
  ["N#Cc1ccc(-c2cc(C(=O)Nc3ccc(OC(F)(F)F)cc3)cnc2N2C[C@H](O)[C@@H](O)C2)[nH]1 [Example 31]", "yes"],
  ["O=C(Nc1ccc(OC(F)(F)Cl)cc1)c1cnc(NC[C@H](O)CCO)c(-c2ccn[nH]2)c1 [Example 99]", "no"]
]}

----------
system_under_test: ABL1 (64-515) (Homo sapiens (Human), UniProt P00519)
procedure_summary: Caliper ABL1 (64-515) microfluidic mobility shift kinase assay
condition_description: read-out: Caliper ABL1 (64-515) IC50
pIC50: −log10 of the molar value.
Below, each entry is listed alongside its reported pIC50.

{"columns": ["compound", "pIC50"],
 "data": [
  ["CC1(O)CN(c2ncc(C(=O)Nc3ccc(OC(F)(F)F)cc3)cc2-c2ncc[nH]2)C1 [Example 69]", 9.70],
  ["NCC1(F)CCN(c2ncc(C(=O)Nc3ccc(OC(F)(F)Cl)cc3)cc2-c2ccn[nH]2)C1 (centres unmarked) [Example 51]", 8.96],
  ["CO[C@H]1CN(c2ncc(C(=O)Nc3ccc(OC(F)(F)F)cc3)cc2-c2ccn[nH]2)C[C@@H]1N (relative stereo) [Example 78]", 8.44],
  ["Cc1cc(-c2cc(C(=O)Nc3ccc(OC(F)(F)F)cc3)cnc2N2CC(CO)C2)[nH]n1 [Example 42]", 7.74],
  ["O=C(Nc1ccc(OC(F)(F)F)cc1)c1ccc(N2C[C@H](O)[C@@H](O)C2)c(-c2ccc[nH]2)c1 [Example 28]", 8.38],
  ["CN(CCO)c1ncc(C(=O)Nc2ccc(OC(F)(F)Cl)cc2)cc1-c1ccn[nH]1 [Example 23]", 8.47],
  ["NC12CC1CN(c1ncc(C(=O)Nc3ccc(OC(F)(F)Cl)cc3)cc1-c1ccn[nH]1)C2 (centres unmarked) [Example 54]", 9.40],
  ["CN(C)[C@H]1CN(c2ncc(C(=O)Nc3ccc(OC(F)(F)Cl)cc3)cc2-c2ccn[nH]2)C[C@@H]1O [Example 53]", 8.85]
]}

----------
system_under_test: ABL1 (64-515) (Homo sapiens (Human))
procedure_summary: Caliper ABL1 (64-515) microfluidic mobility shift kinase assay
condition_description: read-out: Caliper ABL1 (64-515) IC50
pIC50: −log10 of the molar value.

{"columns": ["compound", "system_under_test", "pIC50"],
 "data": [
  ["O=C(Nc1ccc(OC(F)(F)F)cc1)c1cnc(N2CCCC2)c(-c2ccn[nH]2)c1 [Example 15]", "ABL1 (64-515) (Homo sapiens (Human))", 9.10],
  ["N[C@@H]1[C@H]2CN(c3ncc(C(=O)Nc4ccc(OC(F)(F)Cl)cc4)cc3-c3ccn[nH]3)C[C@@H]12 [Example 55]", "ABL1 (64-515) (Homo sapiens (Human))", 9.70],
  ["O=C(Nc1ccc(OC(F)(F)Cl)cc1)c1cnc(N2C[C@H](O)[C@@H](F)C2)c(-c2ccn[nH]2)c1 (relative stereo) [Example 75]", "ABL1 (64-515) (Homo sapiens (Human))", 9.30],
  ["O=C(Nc1ccc(OC(F)(F)Cl)cc1)c1cnc(N2CCC(O)CC2)c(-c2ccn[nH]2)c1 [Example 85]", "ABL1 (64-515) (Homo sapiens (Human))", 9.15],
  ["CC1(O)CN(c2ncc(C(=O)Nc3ccc(OC(F)(F)Cl)cc3)cc2-c2ccn[nH]2)C1 [Example 66]", "ABL1 (64-515) (Homo sapiens (Human))", 9.10],
  ["N#Cc1ccc(-c2cc(C(=O)Nc3ccc(OC(F)(F)F)cc3)cnc2N2CC[C@@H](O)C2)[nH]1 [Example 30]", "ABL1 (64-515) (Homo sapiens (Human))", 9.15],
  ["N[C@H]1CN(c2ccc(C(=O)Nc3ccc(OC(F)(F)Cl)cc3)cc2-c2ccn[nH]2)C[C@@H]1O [Example 76]", "ABL1 (64-515) (Homo sapiens (Human))", 8.85]
]}
